# Assay Notes: folding stability dG unfold (combined trypsin and chymotrypsin); higher = more stable
Entries and their folding stability dG unfold
Give the value in kcal/mol but do not write kcal/mol after it.

Solved entries:
[[record]]
residue_string = "SAGGSAGGSAGKLRYRYRFDTVLLEVTYDPSTGEVVEVKVIPLSPLPPLTPEELYRLLEDSAGGSAGGSAGG [r11_320_TrMRF]"
recorded_measurement = 2.82

[[record]]
residue_string = "SAGGSAGGSDWRPIKIWYPLDDLEQIKEKIREDGITVEINVQRDPNGKLYAPVTIWVPKGAKPSAGGSAGGS [r12_653_TrROS]"
recorded_measurement = 1.32

[[record]]
residue_string = "SAGGSAGGSAGMKIIVKSKEEAEKIAKEIAKKLGIEKKIKKIEIIVIPYKKTKDGKIEKISAGGSAGGSAGG [r17_237_TrROS_Hall]"
recorded_measurement = -0.184


Enquiry: Supply reported folding stability dG unfold belonging to this sequence: SAGGSAGGSPVIAVRVKRIEVTYDAATGRLTVRIEVEVDGKTYTITVPPGAEIKPGDTLLIEPSAGGSAGGS [r20_49_TrROS_Hall]
Return: 4.37

---

folding stability dG unfold overview
# Assay Notes: folding stability dG unfold (combined trypsin and chymotrypsin); higher = more stable
Number plus unit, in that order.

[[record]]
residue_string = "SAGMKTKTIEETITFTFPPGNPPDLEEIKEKLKSKGVKVLKVEMFEPPGDYYVVTAKVVKELEPSELLSSAG [r5_167_JUSTAS]"
recorded_measurement = "1.84 kcal/mol"

[[record]]
residue_string = "SAGMPAETETTVTITTETIDEKGNLSTKTYTATVRTLPDGRVLVYLENELLLIDPATGEVVAREPNYKPSAG [r14_821_JUSTAS]"
recorded_measurement = "2.28 kcal/mol"

[[record]]
residue_string = "SAGGMRPMVVTVRYPDGSVQTLVADYDPDTDVIRFPFPSDGTERDIPAGEWREDPDYQVLSETPLSLESAGG [r13_994_JUSTAS]"
recorded_measurement = "0.967 kcal/mol"


Enquiry: Identify measured folding stability dG unfold corresponding to SAGGKKKVTIEIRKNPEEPGKYIIRVKVDGKEIEIEVSEEDLEEILAALKKLLPPGAKIEKIEIRELPSAGG [r13_519_TrROS_Hall]
Return: 3.45 kcal/mol

---

# Assay Notes: folding stability dG unfold (combined trypsin and chymotrypsin); higher = more stable
This listing pairs sequences with measured folding stability dG unfold.
Unit kcal/mol implied. Number only.

Worked cases, answers included:
[[record]]
residue_string = "SAGGMTKTVTVTIEIDVPPGVTVDELIEKLKELAEKLGLTVKVTSVTVEEVDGKLVVTVEVEIEPPEPSAGG [r13_351_TrROS_Hall]"
reported_metric = "folding stability dG unfold"
recorded_measurement = 2.5

[[record]]
residue_string = "SAGAAPGEPVVLVLPDGTVIPVIPRPDGSATLDAVAPSADGTYTVTASLPATGTTVTLELSAPPSFVAASAG [r5_394_TrMRF]"
reported_metric = "folding stability dG unfold"
recorded_measurement = 1.16

[[record]]
residue_string = "SAGGSAGGSADEIPIMIKIKYKNGGKKREHTITFRVEPNMPNLDEFAKELANNGRIEEVEISAGGSAGGSAG [r3_30_TrROS]"
reported_metric = "folding stability dG unfold"
recorded_measurement = 0.28

[[record]]
residue_string = "KTISSDELLELLGVSKSELKKLPLEAIVDEVKKALPPGVAVSAKAEPIPENPSYTIVVELKNGEPVTITLDS [r1_340_TrMRF]"
reported_metric = "folding stability dG unfold"
recorded_measurement = 0.964

[[record]]
residue_string = "SAGGSADKITVRVMPSPDGMYRVKIWHPGKKREYWMNPDDPDKMLEEFADEINPDRPIKVEVEPYKSAGGSA [r15_925_TrROS]"
reported_metric = "folding stability dG unfold"
recorded_measurement = 0.467


Then this sequence:
Enquiry: Please supply the value of reported folding stability dG unfold for the item SAGKKKKKVKKKTVKLTITVKLKPGMTEEEALEKVKELAKALLPPGAKIKEVKFDKETKTVTVEIELTSAGG [r19_81_TrROS_Hall]
Return: 2.25

---

Form field: folding stability dG unfold (one value per entry).
# Assay Notes: folding stability dG unfold from chymotrypsin proteolysis; higher = more stable
Expressed in kcal/mol, but write only the number.

[[record]]
residue_string = "SAGGSAGGSAGLKLLEKELRVLTYDPETGSLSESTLRVPVLLVPPVPVPVLDPNGGLTLASAGGSAGGSAGG [r11_307_TrMRF]"
recorded_measurement = 0.407


Turning now to a further record.
Enquiry: Please give the documented folding stability dG unfold of SAGGEKVKRVLVRDKKTKEWREVEVKEAKVEPPPVITIKIELSEEEAKKLAELLRKLFPDAKVTVVKSAGGS [r8_437_TrROS_Hall]
Return: 3.82

---

# Assay Notes: folding stability dG unfold (combined trypsin and chymotrypsin); higher = more stable
Reported values of folding stability dG unfold for individual entries
# number only, unit kcal/mol dropped from output

Example results:
[[record]]
residue_string = "SAGMKITYKRPDGTPAEPIPEEEIKKLAEEKAKELYPNKPDATVTVTITIKTNNNEPLIITMTVTIKNESAG [r5_526_JUSTAS]"
value_unit = "kcal/mol"
recorded_measurement = 1

[[record]]
residue_string = "SAGGSAGGSAGGRKLAIKIEIEEVKTETRIRPDGKTETRTELRIKIEIRPVPHPDDPELLSAGGSAGGSAGG [r7_523_TrROS_Hall]"
value_unit = "kcal/mol"
recorded_measurement = 2.34


As a next step, examine the sequence that follows.
Enquiry: Look up folding stability dG unfold of SAGGSAGGKISKEDLEKILEAIKEGKPITIVKVKVEKNENGEEVEKVEVIKTFTAEELKKLGIESAGGSAGG [r6_402_TrROS_Hall] and report it.
Return: 1.43

---

# Assay Notes: folding stability dG unfold from chymotrypsin proteolysis; higher = more stable
Lab note: anything with folding stability dG unfold at or over 2 kcal/mol counts as Condition met; the rest go in Condition not met.

# count of solved cases: 5
[[record]]
residue_string = "SAGGSIEEAKKAAEKLAKEIAEKKGWTVKSVEVEKLPDGTVRATITIKYPDGSEETIEVTIPPNTPLSAGGS [r8_175_JUSTAS]"
answer_label = "Condition not met"

[[record]]
residue_string = "SAGATFKPGQTVTVVEVKVEVSVSLSRNADGSVSLSVSVRVEVKTTTVTLPEPATVTLPPGVKSLEDLLSAG [r5_770_TrROS_Hall]"
answer_label = "Condition met"

[[record]]
residue_string = "SAGSIEAAVEALEKELREKGYKVSVELVETDPSDPNRLNLVIRVTVEGFSPESKPLGKKEETYVIEGGSAGG [r19_418_JUSTAS]"
answer_label = "Condition not met"

[[record]]
residue_string = "SAGGSAGGSAGGSDNSITLDFFFNNYYIKITFNPWNGNLEIDEVQKVPPPPKPKDPGDKSAGGSAGGSAGGS [r4_21_TrROS]"
answer_label = "Condition met"

[[record]]
residue_string = "SAGGPLSEEELEALRKALEAARAAGAETVTLTATLTVTRTVTLPDGSTRTETRTLTLTLTVTLPPEESAGGS [r8_203_TrROS_Hall]"
answer_label = "Condition met"


Enquiry: # bool: folding stability dG unfold of SAGGSAGGSAGKKKYKIVSIEIERNKDGNSLTVKIKLENGKELTLTFPTEEDLKNLKIKASAGGSAGGSAGG [r11_711_TrROS_Hall] >= 2 kcal/mol
Return: Condition met

Enquiry: Say whether SAGGSAGGSAGGSDDFVLRYRRRVRRKPKEVRLLPNGELVTGWEEEVSTFPVLTHPDDDSAGGSAGGSAGGS [r10_524_TrMRF] shows folding stability dG unfold of 2 kcal/mol or more.
Return: Condition not met

Enquiry: Evaluate SAGMTTEKSPSGVGRVYLPTRTLELELLPDGTVVLRFPDGTEVVHPLSPEEAAAVRAELRARGLVVRPLSAG [r5_753_JUSTAS] : folding stability dG unfold at minimum 2 kcal/mol?
Return: Condition not met

---

# Assay Notes: folding stability dG unfold from trypsin proteolysis; higher = more stable
Listed here are sequences together with their documented folding stability dG unfold.
All answers are understood in kcal/mol, so give the number only.

Consider the following illustrative entries.
[[record]]
residue_string = "SAGGSAGGKKNNKPKPILVKIEIINKNGKKKVFTKEFKSLEEAKKFIEKALPKGYSAKIEIIPGSAGGSAGG [r6_289_TrMRF]"
recorded_measurement = 2.25

[[record]]
residue_string = "SAGGMTETITGEFDDEEEAIAYAKKIVKEKYPNKNVTMEIETTYDPKTGKYKVTATITIPDEGEEHHSAGGS [r8_17_JUSTAS]"
recorded_measurement = 4.72

[[record]]
residue_string = "SAGGPVVEKIRELLKELGYEVEVTDVKEDYVEIKVKLPDKEITLPDGSKIERLENGELRIWIPKEDLSAGGS [r8_297_TrROS_Hall]"
recorded_measurement = 2.98


Now look at this one.
Enquiry: Consider the sequence SAGGSAGGSMYIVRIEVVNEETGKTEEIELEVSEEEAEELAKELAEKLPNIKEIKVEIRPLPESAGGSAGGS [r12_757_TrROS_Hall] . State its measured folding stability dG unfold.
Return: 1.37
